# Target Entity: UniProt F1MPW5
# Sequence (F1MPW5 whole entry): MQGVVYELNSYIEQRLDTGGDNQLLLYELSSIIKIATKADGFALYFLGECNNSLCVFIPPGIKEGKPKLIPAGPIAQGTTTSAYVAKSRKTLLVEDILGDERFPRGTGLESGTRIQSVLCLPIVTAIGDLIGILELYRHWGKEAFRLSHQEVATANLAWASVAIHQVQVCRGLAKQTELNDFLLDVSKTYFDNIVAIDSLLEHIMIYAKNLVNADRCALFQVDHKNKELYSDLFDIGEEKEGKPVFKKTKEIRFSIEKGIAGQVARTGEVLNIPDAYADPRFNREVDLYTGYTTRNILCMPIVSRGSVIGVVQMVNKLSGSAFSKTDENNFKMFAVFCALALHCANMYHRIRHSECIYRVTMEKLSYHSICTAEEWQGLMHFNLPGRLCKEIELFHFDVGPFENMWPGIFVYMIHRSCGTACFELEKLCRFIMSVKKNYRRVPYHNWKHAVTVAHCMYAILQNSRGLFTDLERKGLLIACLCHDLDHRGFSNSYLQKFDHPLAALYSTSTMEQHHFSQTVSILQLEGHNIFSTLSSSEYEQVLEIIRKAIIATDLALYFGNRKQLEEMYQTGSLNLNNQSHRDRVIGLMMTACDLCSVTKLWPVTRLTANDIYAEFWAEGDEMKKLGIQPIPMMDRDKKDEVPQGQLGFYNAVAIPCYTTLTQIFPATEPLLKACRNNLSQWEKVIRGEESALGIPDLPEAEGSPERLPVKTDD
# Assay Details: Inhibition Assay: The PDE assay was performed according to a modified method referred to a report of Kotera et al. (Kotera et al., Biochem. Pharmacol., vol. 60, pp. 1333-1341, 2000), by the radiolabeled nucleotide method.Specifically, the measurements of the inhibitory activities were carried out in the following method.(Method) The test compounds were dissolved in dimethyl sulfoxide (DMSO). 2 uL of the compound solution was added to 96 well plate, and the reaction mixture (20 uL of PDE enzyme solution in 50 mM Tris-HCl, pH 8.0, 40 uL of the assay buffer (50 mM Tris-HCl, pH 8.0, 2 mM MgCl2, 0.07% 2-mercaptoethanol, and 0.825 mg/mL bovine serum albumin), and 20 uL of 1 mg/mL snake venom in 50 mM Tris-HCl, pH8.0) was added to the 96 well plate. The enzyme reaction was started by adding and mixing with substrate solution of 20 L containing approximate 35 nM 3H-cAMP in 50 mM Tris-HCl, pH 8.0. The final concentration of cAMP in the reaction mixtures was 7 nM.

{"Smiles Representation": "Cc1nc2ccccc2nc1-c1cc2nc(N3CCCC3)cc(N3CCCC3)n2n1", "Target Entity": "UniProt F1MPW5", "IC50 / pM": 570}
{"Smiles Representation": "Cc1nc2c(C)cccc2nc1-c1cc2nc(N3CCCC3)cc(NC3CCOCC3)n2n1", "Target Entity": "UniProt F1MPW5", "IC50 / pM": 780}
{"Smiles Representation": "Cc1nc2c(nc1-c1cc3nc(N4CCCC4)cc(NC4CCC(F)(F)CC4)n3n1)CCCC2", "Target Entity": "UniProt F1MPW5", "IC50 / pM": 230}
{"Smiles Representation": "Cc1ccc2nc(-c3cc4nc(N5CCCC5)cc(NC5CCOCC5)n4n3)c(C)nc2c1", "Target Entity": "UniProt F1MPW5", "IC50 / pM": 460}
{"Smiles Representation": "Cc1ccc2nc(C)c(-c3cc4nc(N5CCCC5)cc(NCCN(C)C)n4n3)nc2c1", "Target Entity": "UniProt F1MPW5", "IC50 / pM": 170}
{"Smiles Representation": "Cc1nc2ccccc2nc1-c1cc2nc(N3CCCC3)cc(N(C)C3CCOCC3)n2n1", "Target Entity": "UniProt F1MPW5", "IC50 / pM": 4.5}
{"Smiles Representation": "Cc1ccc2nc(C)c(-c3cc4nc(N5CCC[C@H]5CO)cc(N(C5CCOCC5)C5CC5)n4n3)nc2c1", "Target Entity": "UniProt F1MPW5", "IC50 / pM": 6.8}
